B1: EHEE_rd4_0726 (parent)
chain: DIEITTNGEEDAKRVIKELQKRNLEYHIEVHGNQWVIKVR

Variants of: B1
Assay: folding stability dG (cDNA display proteolysis); higher = more stable
Details: PBS, room temperature
Label scheme for folding stability dG: lower segment: < 1 kcal/mol; middle segment: ≥ 1 kcal/mol and < 2 kcal/mol; upper segment: ≥ 2 kcal/mol

Below, 4 variants whose answers are already recorded.
Item sequence	Label value
DIEITTNGEEDAKRVIKELQKRNLEYHIEVHGNQWVIKHR [V39H]	lower segment
DIEITTNGEEDAKRVIKELQKRNLEYHIEVHGNQWVIQVR [K38Q]	middle segment
DIEITTNGEEDAKRVIKELQKRNLEYHAEVHGNQWVIKVR [I28A]	middle segment
DIEIATNGEEDAKRVIKELQKRNLEYHIEVHGNQWVIKVR [T5A]	middle segment

Into which category would you place DIEITTNGEEDAKRVIKELQKRNLEYHIEVHGNQWVIIVR [K38I] ? upper segment

The entry to classify is DIEITTNGEEDAKRVIKELQKRNLEYHIEVHGNQWVCKVR [I37C] ; which class holds it? middle segment

Dear colleague, I would appreciate it if you could identify the bin for DIEITTNGEEDAKRVIKELQKRNLPYHIEVHGNQWVIKVR [E25P] and reply at your convenience. upper segment

Into which category would you place DIEITTFGEEDAKRVIKELQKRNLEYHIEVHGNQWVIKVR [N7F] ? upper segment

Could you place DIEITTNGEEDAKRVIKELRKRNLEYHIEVHGNQWVIKVR [Q20R] in its proper category? Many thanks. upper segment

Which bin should I file DIEITTNGYEDAKRVIKELQKRNLEYHIEVHGNQWVIKVR [E9Y] under? upper segment

Which class holds DIEITTNGEEDAKRVIKELQKRTLEYHIEVHGNQWVIKVR [N23T] ? middle segment

State the class of the variant shown: DIEITTNGEEDAKRVIKEMQKRNLEYHIEVHGNQWVIKVR [L19M] middle segment

Textbook exercise: identify the category of the variant given here, DIEITKNGEEDAKRVIKELQKRNLEYHIEVHGNQWVIKVR [T6K] , according to its measured value. middle segment
